# test.protocol: Viability of V79 MZ cells, alone or co-cultured with H1A2 MZ cells (bystander effect), with acetaminophen, trypan blue exclusion
# Type: cell-based, Chinese hamster
# run.parameters: Chinese hamster, V79 MZ cells + 25% H1A2 MZ cells; 4 mM acetaminophen 6 h, then 24 h in culture medium
measurement.type: viability at 4 mM (%)
The answer is to be given in %; state only the numeric part.

Asked: Consider the molecule CC(=O)Nc1ccc(O)cc1 [acetaminophen] and give its measured viability at 4 mM.
Given back: 0

----------
# test.protocol: Viability of H1A2 MZ cells (stably transfected with human CYP1A2) incubated with acetaminophen, trypan blue exclusion
# run.parameters: Chinese hamster
measurement.type: viability at 6 h, 4 mM (%)
Write down the numeric answer in % and omit the unit.

Asked: Given the entry CC(=O)Nc1ccc(O)cc1 [acetaminophen] , report its measured viability at 6 h, 4 mM.
Given back: 8

----------
# test.protocol: Viability of V79 MZ cells, alone or co-cultured with H1A2 MZ cells (bystander effect), with acetaminophen, trypan blue exclusion
# Type: cell-based, Chinese hamster
# run.parameters: Chinese hamster, V79 MZ cells + 50% H1A2 MZ cells; 4 mM acetaminophen in PBS; 0 h
# Description: Table 1 represents the bystander effect on viability produced by incubating H1A2 MZ cells (stably transfected with human CYP1A2) with various cell-lines in the presence of acetaminophen. […] At 0, 6, 24 or 48 h the cells were washed in PBS and viability of the mixed cell population determined by trypan blue exclusion. […] Viability was determined in a total of 1500 cells at each time point. […]
measurement.type: viability at 0 h, 4 mM

Asked: Look up viability at 0 h, 4 mM for this compound: CC(=O)Nc1ccc(O)cc1 [acetaminophen]
Given back: 96%

----------
# test.protocol: Viability of V79 MZ cells, alone or co-cultured with H1A2 MZ cells (bystander effect), with acetaminophen, trypan blue exclusion
# Assay type: cell-based, Chinese hamster
# run.parameters: Chinese hamster, V79 MZ cells + 25% H1A2 MZ cells; 4 mM acetaminophen in PBS; 6 h
measurement.type: viability at 6 h, 4 mM
The reply must contain the numeric value and, after it, the unit.

Asked: Looking for the measured viability at 6 h, 4 mM of CC(=O)Nc1ccc(O)cc1 , can you help?
Given back: 20%

----------
# test.protocol: Viability of H1A2 MZ cells (stably transfected with human CYP1A2) incubated with acetaminophen, trypan blue exclusion
# run.parameters: Chinese hamster
measurement.type: viability at 6 h, 1 mM (%)
Provide only the numeric value, understood in %.

Asked: Find the recorded viability at 6 h, 1 mM belonging to CC(=O)Nc1ccc(O)cc1 [acetaminophen] and report it.
Given back: 62

----------
# test.protocol: Viability of V79 MZ cells, alone or co-cultured with H1A2 MZ cells (bystander effect), with acetaminophen, trypan blue exclusion
# Assay type: cell-based, Chinese hamster
# run.parameters: Chinese hamster, V79 MZ cells + 10% H1A2 MZ cells; 4 mM acetaminophen 6 h, then 24 h in culture medium
measurement.type: viability at 4 mM (%)
Use % as the unit, but write only the number.

Asked: Find the recorded viability at 4 mM belonging to CC(=O)Nc1ccc(O)cc1 [acetaminophen] and report it.
Given back: 0

----------
# test.protocol: Viability of V79 MZ cells, alone or co-cultured with H1A2 MZ cells (bystander effect), with acetaminophen, trypan blue exclusion
# Type: cell-based, Chinese hamster
# run.parameters: Chinese hamster, V79 MZ cells + 5% H1A2 MZ cells; 4 mM acetaminophen in PBS; 0 h
measurement.type: viability at 0 h, 4 mM

Asked: Sample CC(=O)Nc1ccc(O)cc1 — what was its viability at 0 h, 4 mM?
Given back: 98%

----------
# test.protocol: Bystander effect on viability of MDA-MB-361 cells co-cultured with H1A2 MZ cells in the presence of acetaminophen, trypan blue exclusion
# Type: cell-based, human
# run.parameters: human, MDA-MB-361 cells + 10% H1A2 MZ cells; 4 mM acetaminophen in PBS; 0 h
# Procedure: Tumour cells or V79 MZ cells (non transfected, parental cells) were co-cultured overnight with various mixtures of H1A2 MZ cells (as indicated in the Table), washed with PBS and incubated with 4 mM acetaminophen in PBS for 6 h at 37° C. the cells were then washed once with PBS and maintained for either 24 or 48 h in culture medium appropriate to each cell type, as detailed in the Methods section. […] Viability was determined in a total of 1500 cells at each time point. […]
measurement.type: viability at 0 h, 4 mM (%)
Quick reminder: number only, in %, skip the unit.

Asked: May I ask what viability at 0 h, 4 mM has been recorded for CC(=O)Nc1ccc(O)cc1 [acetaminophen] ?
Given back: 96

----------
# test.protocol: Bystander effect on viability of MDA-MB-361 cells co-cultured with H1A2 MZ cells in the presence of acetaminophen, trypan blue exclusion
# Assay type: cell-based, human
# run.parameters: human, MDA-MB-361 cells + 50% H1A2 MZ cells; 4 mM acetaminophen in PBS; 6 h
measurement.type: viability at 6 h, 4 mM (%)
# output: bare number, implied unit %

Asked: Entry under review: CC(=O)Nc1ccc(O)cc1 [acetaminophen] . Reported viability at 6 h, 4 mM?
Given back: 42

----------
# test.protocol: Bystander effect on viability of MDA-MB-361 cells co-cultured with H1A2 MZ cells in the presence of acetaminophen, trypan blue exclusion
# Type: cell-based, human
# run.parameters: human, MDA-MB-361 cells + 10% H1A2 MZ cells; 4 mM acetaminophen 6 h, then 24 h in culture medium
# Description: Tumour cells or V79 MZ cells (non transfected, parental cells) were co-cultured overnight with various mixtures of H1A2 MZ cells (as indicated in the Table), washed with PBS and incubated with 4 mM acetaminophen in PBS for 6 h at 37° C. the cells were then washed once with PBS and maintained for either 24 or 48 h in culture medium appropriate to each cell type, as detailed in the Methods section. […] Viability was determined in a total of 1500 cells at each time point. […]
measurement.type: viability at 4 mM (%)
Give just the numeric value; % need not be written.

Asked: // returns reported viability at 4 mM for input CC(=O)Nc1ccc(O)cc1
Given back: 81

----------
# test.protocol: Viability of V79 MZ cells, alone or co-cultured with H1A2 MZ cells (bystander effect), with acetaminophen, trypan blue exclusion
# Type: cell-based, Chinese hamster
# run.parameters: Chinese hamster, V79 MZ cells, 0% H1A2 MZ cells; 4 mM acetaminophen in PBS; 6 h
measurement.type: viability at 6 h, 4 mM (%)
Hi! Could you send only the number? It should be in %, unit omitted.

Asked: Param item = CC(=O)Nc1ccc(O)cc1 ; retrieve measured viability at 6 h, 4 mM.
Given back: 94

----------
# test.protocol: Viability of V79 MZ cells, alone or co-cultured with H1A2 MZ cells (bystander effect), with acetaminophen, trypan blue exclusion
# Type: cell-based, Chinese hamster
# run.parameters: Chinese hamster, V79 MZ cells + 5% H1A2 MZ cells; 4 mM acetaminophen 6 h, then 24 h in culture medium
measurement.type: viability at 4 mM (%)
Kindly answer with a numeric value in %, unit omitted.

Asked: Sample CC(=O)Nc1ccc(O)cc1 [acetaminophen] — what was its viability at 4 mM?
Given back: 0

----------
# test.protocol: Viability of V79 MZ cells, alone or co-cultured with H1A2 MZ cells (bystander effect), with acetaminophen, trypan blue exclusion
# Assay type: cell-based, Chinese hamster
# run.parameters: Chinese hamster, V79 MZ cells + 25% H1A2 MZ cells; 4 mM acetaminophen in PBS; 0 h
measurement.type: viability at 0 h, 4 mM (%)
# value in %; strip the unit string

Asked: Name the reported viability at 0 h, 4 mM value associated with the compound CC(=O)Nc1ccc(O)cc1 [acetaminophen]
Given back: 97

----------
# test.protocol: Bystander effect on viability of MDA-MB-361 cells co-cultured with H1A2 MZ cells in the presence of acetaminophen, trypan blue exclusion
# Type: cell-based, human
# run.parameters: human, MDA-MB-361 cells + 5% H1A2 MZ cells; 4 mM acetaminophen 6 h, then 48 h in culture medium
measurement.type: viability at 4 mM (%)
Only the number, expressed in %, is required.

Asked: Need viability at 4 mM, item CC(=O)Nc1ccc(O)cc1 [acetaminophen]
Given back: 92

----------
# test.protocol: Bystander effect on viability of MDA-MB-361 cells co-cultured with H1A2 MZ cells in the presence of acetaminophen, trypan blue exclusion
# Type: cell-based, human
# run.parameters: human, MDA-MB-361 cells + 50% H1A2 MZ cells; 4 mM acetaminophen in PBS; 0 h
# Experimental: Tumour cells or V79 MZ cells (non transfected, parental cells) were co-cultured overnight with various mixtures of H1A2 MZ cells (as indicated in the Table), washed with PBS and incubated with 4 mM acetaminophen in PBS for 6 h at 37° C. the cells were then washed once with PBS and maintained for either 24 or 48 h in culture medium appropriate to each cell type, as detailed in the Methods section. […] Viability was determined in a total of 1500 cells at each time point. […]
measurement.type: viability at 0 h, 4 mM (%)
Report as a plain number; the unit % is understood.

Asked: // viability at 0 h, 4 mM lookup, key: CC(=O)Nc1ccc(O)cc1 [acetaminophen]
Given back: 98
